# VQIINK Inhibition IC50 annotations
Molecular target: Ac-VQIINK-NH2 (SEQ ID NO: 23) (N-terminal acetyl (Ac); C-terminal amide (NH2))
Assay: cell-based or functional assay
Square brackets hold non-standard residues; d marks the D form. Ends that are not written are not given here.
observation-type: VQIINK Inhibition IC50 (µm)

>>> reading("[dW][dR][dL][dK][dV][dA][dW] [wrlkvaw]")
3.57
>>> reading("[dF][dH][dL][dE][dI][dR][dH][dW] [fhleirhw]")
1.79
>>> reading("[dW][dR][dL][dR][dI][dW][dW][dW] [wrlriwww]")
1.75
>>> reading("[dF][dR][dI][dK][dL][dR][dW] [friklrw]")
2.49
>>> reading("[dH][dR][dL][dK][dV][dR][dW][dH] [hrlkvrwh]")
1.97
>>> reading("[dF][dK][dI][dE][dL][dH][dW][dH] [fkielhwh]")
1.41
>>> reading("[dF][dK][dI][dR][dI][dK][dW][dH] [fkirikwh]")
1.3
